Every entry's value here was drawn from patent US20230041996A1.

- System: rat peritoneal mast cells
- EXPERIMENT_NOTES: In vitro histamine release in rat peritoneal mast cells (histamine ELISA)
- Type: cell-based
- MEASUREMENT_CONDITIONS: test compound final concentration 10 μM, 15 min at 37° C., relative to PBS buffer (1.00)
Square brackets hold non-standard residues; d marks the D form. Peptide text beside a SMILES is read from it. * marks the point of attachment. Cys(free,S-linked) = N[C@@H](CS*)C(=O)O; dAbu = CC[C@@H](N)C(=O)O
The entries below come with measured Relative fold of histamine release in vitro values attached.
Response field accepts a number only; no unit should be typed.

CC(=O)N[C@H](CSSC[C@H](N)C(=O)O)C(=O)N[C@H](CCCNC(=N)N)C(=O)N[C@H](CCCNC(=N)N)C(=O)N[C@H](CCC(N)=O)C(=O)N[C@H](CCCNC(=N)N)C(=O)N[C@H](CO)C(=O)N[C@H](CCCNC(=N)N)C(N)=O [Compound 26, Ac-c(C)-r-r-q-r-s-r-NH2] (Ac-[dC](Cys(free,S-linked))[dR][dR][dQ][dR][dS][dR]-NH2)    1.73
CC[C@@H](NC(=O)[C@@H](CCCNC(=N)N)NC(=O)[C@@H](CCCNC(=N)N)NC(=O)[C@@H](CSSC[C@H](N)C(=O)O)NC(C)=O)C(=O)N[C@H](CCCNC(=N)N)C(=O)NCC(=O)N[C@H](CCCNC(=N)N)C(N)=O [Compound 32, Ac-c(C)-r-r-(D-Abu)-r-G-r-NH2] (Ac-[dC](Cys(free,S-linked))[dR][dR][dAbu][dR]G[dR]-NH2)    1.41

Here's the next entry for you.
Field Relative fold of histamine release in vitro (system: rat peritoneal mast cells) for entry CC(=O)N[C@H](CSSC[C@H](N)C(=O)O)C(=O)N[C@H](CO)C(=O)N[C@H](CCCNC(=N)N)C(=O)N[C@H](CCCNC(=N)N)C(=O)N[C@H](CCCNC(=N)N)C(=O)N[C@H](CO)C(=O)N[C@H](CCCNC(=N)N)C(N)=O [Compound 6, Ac-c(C)-s-r-r-r-s-r-NH2] (Ac-[dC](Cys(free,S-linked))[dS][dR][dR][dR][dS][dR]-NH2) = 1.65

---

- Test system: rat peritoneal mast cells
- EXPERIMENT_NOTES: In vitro histamine release in rat peritoneal mast cells (histamine ELISA)
- Format: cell-based
- MEASUREMENT_CONDITIONS: test compound final concentration 10 μM, 15 min at 37° C., relative to PBS buffer (1.00)
Square brackets hold non-standard residues; d marks the D form. Peptide text beside a SMILES is read from it. * marks the point of attachment. Cys(free,S-linked) = N[C@@H](CS*)C(=O)O; dCha = N[C@H](CC1CCCCC1)C(=O)O; dChg = N[C@@H](C(=O)O)C1CCCCC1; dPhg = N[C@@H](C(=O)O)c1ccccc1
ASSAY_ENDPOINT: Relative fold of histamine release in vitro
Response field accepts a number only; no unit should be typed.

CC(=O)N[C@H](CSSC[C@H](N)C(=O)O)C(=O)N[C@H](CCCNC(=N)N)C(=O)N[C@H](CCCNC(=N)N)C(=O)N[C@@H](C(=O)N[C@H](CCCNC(=N)N)C(=O)N[C@H](CO)C(=O)N[C@H](CCCNC(=N)N)C(N)=O)C1CCCCC1 [Compound 35, Ac-c(C)-r-r-(D-Chg)-r-s-r-NH2] (Ac-[dC](Cys(free,S-linked))[dR][dR][dChg][dR][dS][dR]-NH2)    2.06
CC(=O)N[C@H](CSSC[C@H](N)C(=O)O)C(=O)N[C@H](CCCNC(=N)N)C(=O)N[C@H](CCCNC(=N)N)C(=O)N[C@H](CC1CCCCC1)C(=O)N[C@H](CCCNC(=N)N)C(=O)N[C@H](C)C(=O)N[C@H](CCCNC(=N)N)C(N)=O [Compound 21, Ac-c(C)-r-r-(D-Cha)-r-a-r-NH2] (Ac-[dC](Cys(free,S-linked))[dR][dR][dCha][dR][dA][dR]-NH2)    3.42

Here's the next entry for you.
Measured Relative fold of histamine release in vitro, CC(=O)N[C@H](CSSC[C@H](N)C(=O)O)C(=O)N[C@H](CCCNC(=N)N)C(=O)N[C@H](CCCNC(=N)N)C(=O)N[C@@H](C(=O)N[C@H](CCCNC(=N)N)C(=O)N[C@H](C)C(=O)N[C@H](CCCNC(=N)N)C(N)=O)c1ccccc1 [Compound 11, Ac-c(C)-r-r-(D-Phg)-r-a-r-NH2] (Ac-[dC](Cys(free,S-linked))[dR][dR][dPhg][dR][dA][dR]-NH2) : 1.11
